# Measurement notes: qHTS Assay for Identification of Small Molecule Agonists for Thrombopoietin (TPO) Signaling Pathway (AID 917); note: potency is the fitted concentration of half-maximal effect
# Condition info: TPO signaling pathway reporter cells, agonist qHTS, stimulated with TPO at its EC50; series mostly up to 38.5 µM
Inconclusive results are not listed. Activity calls are given as the source filed them. Calls come from the whole dose curve; as a rule, active = well fitted activation curve with a large enough effect; inconclusive = small, poorly fitted or top-dose-only effect, or effect the other way; inactive = flat fitted curve, though single readings scatter.
Endpoint name: Potency

Example entries begin here.
> print(dat)
                           substance.smiles  endpoint.name  test.value
1  CC(C)OC(=O)C(C)(C)Oc1ccc(C(=O)c2ccc(Cl)cc2)cc1        Potency    inactive
2     O=C(O)CCc1nc(-c2ccccc2)c(-c2ccccc2)o1        Potency    inactive
3  CC(=O)c1ccc(S(=O)(=O)NC(=O)NC2CCCCC2)cc1        Potency    inactive
4              C[N+](C)(C)CCCCCC[N+](C)(C)C        Potency    inactive
5  COc1ccccc1N1CCN(CCCNc2cc(=O)n(C)c(=O)n2C)CC1        Potency    inactive

# evaluate next
Req: Given the molecule `COc1cccc(-c2cc(=O)c3ccccc3o2)c1N` , write its reported Potency.
Resp: 398 nM (active)
